- SYSTEM UNDER TEST: T1, human LAG3 expressed on cells (human, UniProt P18627 23-525)
- T1 sequence (looked up): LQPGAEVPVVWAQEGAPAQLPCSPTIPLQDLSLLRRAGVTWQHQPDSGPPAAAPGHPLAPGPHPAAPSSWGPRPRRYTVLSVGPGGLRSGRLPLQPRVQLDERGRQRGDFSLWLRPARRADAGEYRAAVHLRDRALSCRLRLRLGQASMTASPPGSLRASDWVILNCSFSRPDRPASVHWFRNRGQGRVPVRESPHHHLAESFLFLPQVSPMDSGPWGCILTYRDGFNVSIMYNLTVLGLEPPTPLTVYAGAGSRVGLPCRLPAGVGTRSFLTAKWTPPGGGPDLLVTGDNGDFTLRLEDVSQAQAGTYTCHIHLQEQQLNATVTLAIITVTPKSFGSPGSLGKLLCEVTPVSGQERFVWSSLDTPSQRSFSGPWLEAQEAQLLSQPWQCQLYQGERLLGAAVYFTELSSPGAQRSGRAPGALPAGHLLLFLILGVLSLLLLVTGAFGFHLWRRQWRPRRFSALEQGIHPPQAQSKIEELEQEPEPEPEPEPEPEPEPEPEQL
- TEST: cell-based or functional assay
IL-2, % of BMS, at 0.411522634 ug/mL reference

[
  {
    "BINDER": "sdAb No. 18 (VHH, Fc of the tested form not described; also called sdAb 18; not shown: Fc part implied by anti-human Fc capture) VHH: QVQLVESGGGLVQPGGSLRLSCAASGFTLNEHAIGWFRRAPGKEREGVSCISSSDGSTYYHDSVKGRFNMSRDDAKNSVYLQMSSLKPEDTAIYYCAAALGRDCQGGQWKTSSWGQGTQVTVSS",
    "IL-2, % of BMS, at 0.411522634 ug/mL [%]": 6.53
  },
  {
    "BINDER": "sdAb No. 27 (VHH, Fc of the tested form not described; also called sdAb 27; not shown: Fc part implied by anti-human Fc capture and anti-human IgG Fc detection) VHH: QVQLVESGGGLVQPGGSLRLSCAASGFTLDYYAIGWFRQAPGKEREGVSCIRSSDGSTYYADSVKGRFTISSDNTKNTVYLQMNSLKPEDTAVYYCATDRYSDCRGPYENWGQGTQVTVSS",
    "IL-2, % of BMS, at 0.411522634 ug/mL [%]": 27.3
  },
  {
    "BINDER": "combination of sdAbs 25 and 18 (other) VHH 1: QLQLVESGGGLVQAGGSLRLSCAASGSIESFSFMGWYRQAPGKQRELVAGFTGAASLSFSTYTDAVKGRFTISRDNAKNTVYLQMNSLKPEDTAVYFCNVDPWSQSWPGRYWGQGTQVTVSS VHH 2: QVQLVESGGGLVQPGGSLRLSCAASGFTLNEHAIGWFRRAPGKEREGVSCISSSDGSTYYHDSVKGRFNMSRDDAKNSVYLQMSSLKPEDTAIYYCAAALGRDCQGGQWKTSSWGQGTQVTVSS",
    "IL-2, % of BMS, at 0.411522634 ug/mL [%]": 32.6
  }
]
